# Test system: RAG01 (derived from fibroblasts of a patient diagnosed with SSMD) fibroblasts
# EXPERIMENT: CellTiter-Glo concentration response in RAG01 fibroblasts
# Format: cell-based, human
# RUN PARAMETERS: Homo sapiens, Fibroblast; RAG01 cell line; 72 hours incubation; CellTiter-Glo; percentage effect normalized to vehicle control; 10-point CRC from 10 μM; read-out: EC50
READOUT KIND: EC50 (nM)
Number in nM, nothing else.

[
  {
    "COMPOUND": "COC(=O)/C=C/c1cccc(N(Cc2ccc(-c3ccc(N(C)C)cc3)cc2)C(=O)C2CCCCC2)c1",
    "NUMBER": 1720
  },
  {
    "COMPOUND": "COc1ccc2nc3cc(Cl)ccc3c(Nc3cc(CN4CCCC4)c(O)c(CN4CCCC4)c3)c2n1",
    "NUMBER": 416
  }
]

Looking for the measured EC50 of COc1ccc2c(c1)c(C1=C(c3c[nH]c4ccccc34)C(=O)NC1=O)cn2CCCN(C)C , can you help?
764

Repeat for the following compound: CC(C)NCC(O)COc1cccc2[nH]c3ccccc3c12 (stereo not shown)
3110

###

# Test system: RAG01 (derived from fibroblasts of a patient diagnosed with SSMD) fibroblasts
# EXPERIMENT: CellTiter-Glo concentration response in RAG01 fibroblasts
# Assay type: cell-based, human
# RUN PARAMETERS: Homo sapiens, Fibroblast; RAG01 cell line; 72 hours incubation; CellTiter-Glo; percentage effect normalized to vehicle control; 10-point CRC from 10 μM; read-out: EC50
Below, each entry is listed alongside its reported pEC50.
API: returns pEC50 as number; meaning -log10 of concentration in mol/L.

[
  {
    "COMPOUND": "CC(C)(CO)Cc1cc(C(C)(C)C)c(O)c(C(C)(C)C)c1",
    "TEST SYSTEM": "RAG01 (derived from fibroblasts of a patient diagnosed with SSMD) fibroblasts",
    "NUMBER": 6.46
  }
]

Which pEC50 value is on record for O=C1NC(=O)c2cc(Nc3ccc(F)cc3)c(Nc3ccc(F)cc3)cc21 ?
6.77

Now consider Cc1ccc(F)c(NC(=O)Nc2ccc(-c3cccc4[nH]nc(N)c34)cc2)c1 and answer again.
5.78

###

# System: RAG01 (derived from fibroblasts of a patient diagnosed with SSMD) fibroblasts
# EXPERIMENT: CellTiter-Glo concentration response in RAG01 fibroblasts
# Type: cell-based, human
# RUN PARAMETERS: Homo sapiens, Fibroblast; RAG01 cell line; 72 hours incubation; CellTiter-Glo; percentage effect normalized to vehicle control; 10-point CRC from 10 μM; read-out: EC50
Property: log10 EC50; scope: individual molecules
Answers are given as log10 of EC50 in nM.

[
  {
    "MOLECULE": "CN1CCCC(CN2c3ccccc3Sc3ccccc32)C1 (centres unmarked)",
    "log10 EC50": 3.26
  },
  {
    "MOLECULE": "CC(C)(C)C(=O)/C(=N/c1ccc(Cl)cc1)NNc1ccc(Cl)cc1",
    "log10 EC50": 2.07
  },
  {
    "MOLECULE": "COc1ccc2c(c1)N(C[C@H](C)CN(C)C)c1ccccc1S2",
    "log10 EC50": 3.51
  },
  {
    "MOLECULE": "Oc1ccc2c3c1O[C@H]1c4[nH]c5ccccc5c4C[C@@]4(O)[C@@H](C2)N(CC2CC2)CC[C@]314",
    "log10 EC50": 3.38
  },
  {
    "MOLECULE": "CC(CN(C)C)CN1c2ccccc2Sc2ccccc21 (centres unmarked)",
    "log10 EC50": 3.22
  }
]

What does the data say about its log10 EC50? Entry: O=C1NC(=O)c2cc(Nc3ccccc3)c(Nc3ccccc3)cc21
2.31

Another: Cc1cccc(Nc2nc(-c3ccncc3)cs2)c1
2.87

Likewise for COc1cc(/C=C/c2ccc(O)cc2)cc(OC)c1 ?
3.21

Repeat for the following molecule: Cc1cc(C(C)(C)C)c(O)c(C)c1CC1=NCCN1
3.16

Request: CC(Cc1ccc(O)c(O)c1)C(C)Cc1ccc(O)c(O)c1 (centres unmarked) [compound 24, Nordihydroguaiaretic acid]
3.40

###

# System: RAG01 (derived from fibroblasts of a patient diagnosed with SSMD) fibroblasts
# EXPERIMENT: CellTiter-Glo concentration response in RAG01 fibroblasts
# Type: cell-based, human
# RUN PARAMETERS: Homo sapiens, Fibroblast; RAG01 cell line; 72 hours incubation; CellTiter-Glo; percentage effect normalized to vehicle control; 10-point CRC from 10 μM; read-out: EC50
Structures can show the parent of a compound that is named as a salt.
READOUT KIND: log10(EC50) (log10 of the value in µM)
Scale: decimal log of EC50, EC50 in µM.

[
  {
    "COMPOUND": "COc1cc(OC)cc(C(=O)NNC(=O)Nc2cccc3ccccc23)c1 [compound 107, TC-O-9311]",
    "NUMBER": 0.55
  },
  {
    "COMPOUND": "O=C(CN1CCN(Cc2ccc3c(c2)OCO3)CC1)N1c2ccccc2Sc2ccccc21 [compound 46, fenoverine]",
    "NUMBER": 0.18
  },
  {
    "COMPOUND": "OCCN1CCN(CCCN2c3ccccc3Sc3ccc(Cl)cc32)CC1 [compound 44, perphenazine]",
    "NUMBER": 0.15
  },
  {
    "COMPOUND": "COc1ccc2c3c([nH]c2c1)[C@H](CC(C)C)N1C(=O)[C@H](CCC(=O)OC(C)(C)C)NC(=O)[C@@H]1C3 [compound 109, Ko 143]",
    "NUMBER": 0.60
  },
  {
    "COMPOUND": "CC(C)=CCc1c(O)cc(O)c2c(=O)c(O)c(-c3ccc(C(F)(F)F)cc3)oc12 [compound 8, SNG1153]",
    "NUMBER": 0.74
  }
]

State its log10(EC50) on RAG01 (derived from fibroblasts of a patient diagnosed with SSMD) fibroblasts: Brc1cc2c(cc1[C@@H]1Nc3ccccc3[C@@H]3C=CC[C@@H]31)OCO2 [compound 7, G-15]
0.22

What do we get for CCCN(C/C=C/I)C1CCc2ccc(O)cc2C1 (stereo not drawn) [compound 40, 7-hydroxy-PIPAT] ?
0.44

Next record, please: COC(=O)C1=C(C)NC(C)=C(C(=O)OCCN2CCN(C(c3ccccc3)c3ccccc3)CC2)C1c1cccc([N+](=O)[O-])c1 (stereo not drawn) [compound 2, manidipine]
0.46

Now the same for Oc1ccc2c3c1OC1c4c(c5ccccc5n4Cc4ccccc4)C[C@@]4(O)C(C2)N(CC2CC2)CC[C@]314 (stereo partly drawn) [compound 54, N-Benzylnaltrindole HCl]
-0.42

Further, for C=CC(=O)Nc1cccc(Oc2nc(Nc3ccc(N4CCN(C)CC4)cc3)nc3ccsc23)c1 [compound 70, Olmutinib] ?
-0.31

###

# Tested on: RAG01 (derived from fibroblasts of a patient diagnosed with SSMD) fibroblasts
# EXPERIMENT: CellTiter-Glo concentration response in RAG01 fibroblasts
# Assay type: cell-based, human
# RUN PARAMETERS: Homo sapiens, Fibroblast; RAG01 cell line; 72 hours incubation; CellTiter-Glo; percentage effect normalized to vehicle control; 10-point CRC from 10 μM; read-out: EC50
// classify(record): look up EC50 in ranges range 1 = under 600 nM, range 2 = from 600 nM up to 2000 nM, range 3 = 2000 nM and over

Some solved entries appear below for comparison.
[
  {
    "MOLECULE": "C=CC(=O)Nc1cc(Nc2nccc(-c3cn(C)c4ccccc34)n2)c(OC)cc1N(C)CCN(C)C",
    "TEST SYSTEM": "RAG01 (derived from fibroblasts of a patient diagnosed with SSMD) fibroblasts",
    "LABEL VALUE": "range 1"
  },
  {
    "MOLECULE": "CC(CN(C)C)CN1c2ccccc2Sc2ccc(C#N)cc21 (stereo not drawn)",
    "TEST SYSTEM": "RAG01 (derived from fibroblasts of a patient diagnosed with SSMD) fibroblasts",
    "LABEL VALUE": "range 2"
  }
]

Given CN1CCc2cccc3c2[C@H]1Cc1ccc(O)c(O)c1-3 , name the class its EC50 places it in.
range 1

What about this molecule? O=C1c2cccnc2C(=O)C(NCCN2CCOCC2)C1Cl (stereo not drawn)
range 1

// query: COc1cc2c(cc1O)C(CCc1ccc(Cl)cc1)N(C)CC2 (stereo not drawn)
range 2

What about CC(=O)Oc1cc(C(C)C)c(OCCN(C)C)cc1C ?
range 2

Here is the next molecule: Cc1ccccc1C(=O)c1ccc(Nc2ccc(Br)cc2N)cc1Cl
range 2

Entry to check: CCOC(=O)Nc1ccc2c(c1)N(C(=O)CCN(CC)CC)c1ccccc1S2
range 1

CC(C)(C)c1cc(C(C)(C)C)c(NC(=O)c2c[nH]c3ccccc3c2=O)cc1O , same question.
range 2

Lookup CC(C)(C)[C@@]1(O)CCN2C[C@@H]3c4ccccc4CCc4cccc(c43)[C@H]2C1
range 3

Continue with COc1ccc(CC2NCCc3c2[nH]c2ccc(C)cc32)c(Cl)c1OC (stereo not drawn)
range 3

Cn1cc(/C=C/C(=O)c2cccc(F)c2)cc1/C=C/C(=O)NO , same question.
range 3

Same thing, different molecule: CC(c1cc2ccccc2s1)N(O)C(N)=O (stereo not drawn)
range 2

Then this molecule: CO[C@H]1/C=C/O[C@@]2(C)Oc3c(C)c(O)c4c(O)c(c5c(nc6cc(C)ccn65)c4c3C2=O)NC(=O)/C(C)=C\C=C\[C@H](C)[C@H](O)[C@@H](C)[C@@H](O)[C@@H](C)[C@H](OC(C)=O)[C@@H]1C
range 2
